- system-name: Carbonic anhydrase 2 (Homo sapiens)
- measurement-description: CAII small-molecule binders, profiling panel, biochemical, small-molecule microarray, Alexa647-labelled CAII (AID 1122)
- test-context: CAII-A647 binding fluorescence, higher = more signal
outcome-measure: composite z-score
One number for each entry.

| molecule | composite z-score |
| --- | --- |
| O=C1C2C=CC(C(O)c3ccc(F)cc3)N(Nc3ccccc3F)C2C(=O)N1c1ccccc1 (centres undefined) | 0.823 |
| C=C/C=C/[C@H]1C(=C)CN([C@@H](Cc2ccccc2)C(=O)OC)[C@@H]1[C@H](O)Cc1ccccc1 | -0.174 |
| COCCOC(=O)N1C(=O)[C@@]2(c3cc(C#Cc4ccc(OC)cc4)ccc31)[C@H](c1ccc(O)cc1)N1[C@H](c3ccccc3)[C@H](c3ccccc3)OC(=O)[C@H]1[C@@H]2C(=O)NC[C@H](O)c1ccccc1 | 0.317 |
| COCCOC(=O)N1C(=O)[C@@]2(c3cc(C#CC4=CCCCC4)ccc31)[C@H](C(N)=O)[C@H]1C(=O)O[C@H](c3ccccc3)[C@H](c3ccccc3)N1[C@@H]2c1ccc(OCCO)cc1 | 0.348 |
| CC(C)OC(=O)C=C1C[C@@H](c2ccccc2C(F)(F)F)O[C@@H](c2ccccc2C(F)(F)F)O1 | -0.0962 |

Each of the following entries comes with a recorded value; kindly state composite z-score for each.
1. COc1ccc(C(O)C2C=CC3C(=O)N(c4ccccc4)C(=O)C3N2Nc2ccccc2F)cc1OCc1ccccc1 (centres undefined)
2. CCOC(=O)C[C@H]1[C@H](OC(=O)c2cc3ccccc3oc2=O)[C@@H](NC(=O)Cc2ccc(OC)cc2)c2cc(OCCCO)ccc2N1C(=O)c1ccccc1
3. CC1CC/C=C\[C@H]2OC34C=CCN(c5ccc(Cl)cc5)C(=O)[C@H]3N(CCO)C(=O)[C@]4(C)C2C(=O)O1 (some centres undefined)
4. O=C(C1N=C(c2ccc(OCCCO)cc2)N(c2ccccc2)O1)N1CCOCC1 (centres undefined)

A.
1: 0.51; 2: 0.091; 3: 0.902; 4: 0.557

Here are 2 molecules. What values of composite z-score were reported for them?
1. O=C(NCC(F)(F)F)[C@@H]1c2ccccc2C(=O)N(C2CCCCC2)[C@H]1c1ccc(CO)cc1
2. CCCCCCC#C[Si](O[C@H](c1ccccc1)c1cn([C@H](CO)Cc2ccccc2)nn1)(C(C)C)C(C)C

A.
[0.667, 0.855]

Provide composite z-score values for the following items, in order.
1. COc1ccc(C(=O)Nc2cccc(CN3C(=O)[C@]4(O[C@H](CCO)[C@@H]([Si](C)(C)c5ccc(OC)cc5)[C@@H]4C)c4ccccc43)c2)cc1
2. COC(=O)[C@@]1(Cc2ccc(OC)cc2)[C@H]2c3cc(C(=O)N(C)C)n(Cc4cccc5ccccc45)c3C[C@H]2CN1C(=O)c1ccccc1
3. COc1ccc(C(=O)Nc2ccc(CN3C(=O)[C@@]4(O[C@@H](CCO)[C@H]([Si](C)(C)c5ccc(OC)cc5)[C@H]4C)c4ccccc43)cc2)cc1

A.
1: 0.41; 2: 0.753; 3: 0.531
